Tested on: MDA-MB-468 breast
Assay Protocol: NCI-60 one-dose screen, 48 h (100 = growth as untreated, 0 = no growth, -100 = all killed)
Applied Conditions: 10 µM unless noted
About 83,000 compounds went through this panel and 20% of them were active in at least one assay; those are over-represented in the sample as a whole.
Rule: growth below 10% gives yes (1). Equal to or above 10% gives no (0).

[ask] Is 10% strictly greater than the compound's reported growth? compound: `OCCS`
[reply] no (0)

[ask] Is 10% strictly greater than the compound's reported growth? compound: `O=C1NC(=O)c2c1c1c3ccccc3[nH]c1c1oc3cc(Br)ccc3c21`
[reply] no (0)

[ask] Is 10% strictly greater than the compound's reported growth? compound: `O=C(N/N=C/c1ccccc1O)c1ccncc1`
[reply] no (0)

[ask] Is 10% strictly greater than the compound's reported growth? compound: `Cc1cc(N(CCCNc2ccnc3cc(Cl)ccc23)Cc2ccccn2)nc(N2CCOCC2)n1`
[reply] no (0)

[ask] Is 10% strictly greater than the compound's reported growth? compound: `Cn1ccnc1C(=O)/C=C/c1ccc(CC(=O)Nc2cc(C(F)(F)F)cc(C(F)(F)F)c2)cc1`
[reply] no (0)

[ask] Is 10% strictly greater than the compound's reported growth? compound: `Cc1ccc2nc(Cl)c(-c3nc4ccccc4o3)cc2c1`
[reply] no (0)

[ask] Is 10% strictly greater than the compound's reported growth? compound: `CN1CCN(CCCOc2ccc3ncnc(Nc4ccc(OCc5cccc(F)c5)c(Cl)c4)c3c2)CC1`
[reply] yes (1)

[ask] Is 10% strictly greater than the compound's reported growth? compound: `C[C@]12CC[C@H](O)CC1=CC[C@@H]1[C@@H]2CC[C@]2(C)C(c3cccnc3)=CC[C@@H]12`
[reply] no (0)

[ask] Is 10% strictly greater than the compound's reported growth? compound: `COc1cccc(-c2nn(-c3ccccc3)cc2-c2ccnc(NCCNC(=O)Nc3ccc(Cl)c(Cl)c3)c2)c1`
[reply] yes (1)

[ask] Is 10% strictly greater than the compound's reported growth? compound: CCCCCN(CCCCC)CC(O)c1cc(C)c2ccc3cc(C(C)C)ccc3c2c1 (stereo not given)
[reply] yes (1)

[ask] Is 10% strictly greater than the compound's reported growth? compound: `Oc1c(Cl)cc(Cl)cc1/C=N/Nc1nnc(N/N=C/c2cc(Cl)cc(Cl)c2O)c2ccccc12`
[reply] yes (1)

[ask] Is 10% strictly greater than the compound's reported growth? compound: `CCOc1cccc(/C=N/NC(=O)c2ccc(Nc3ccnc(C(F)(F)F)c3)cc2)c1O`
[reply] yes (1)

[ask] Is 10% strictly greater than the compound's reported growth? compound: `Oc1ccc(N=Nc2ccc(N=Nc3ccccc3)cc2)cc1`
[reply] no (0)

[ask] Is 10% strictly greater than the compound's reported growth? compound: `C=C1C(=O)O[C@H]2[C@H]1CC/C(COC(=O)NCc1ccc(Cn3c(=O)sn(-c4ccccc4)c3=O)cc1)=C\CC[C@@]1(C)O[C@@H]21`
[reply] yes (1)

[ask] Is 10% strictly greater than the compound's reported growth? compound: `COc1cccc(OC)c1Oc1c(-c2nc3ccccc3s2)c(C)nn1-c1ccccc1`
[reply] no (0)

[ask] Is 10% strictly greater than the compound's reported growth? compound: `O=Cc1c(OCc2cnnn2CC(=O)Nc2ccc(Cl)cc2)ccc2ccccc12`
[reply] no (0)

[ask] Is 10% strictly greater than the compound's reported growth? compound: `CC(C)=CCC[C@](C)(O)[C@H]1CC[C@]2(C)[C@@H]1CC[C@@H]1[C@@]3(C)C/C(=C/c4ccccc4)C(=O)C(C)(C)[C@@H]3CC[C@]12C`
[reply] no (0)

[ask] Is 10% strictly greater than the compound's reported growth? compound: `CCCCCCCC/C=C/CCCCCCCC1=NCC[N+]1(CCO)CCO`
[reply] no (0)

[ask] Is 10% strictly greater than the compound's reported growth? compound: `Oc1c(Cl)cc(Cl)c(Cl)c1CNCCNCc1c(O)c(Cl)cc(Cl)c1Cl`
[reply] yes (1)
